TARGET_DESC: human PD-1 (Jurkat-PD-1 cells) / PE-labeled human PD-L1-Ig (Homo sapiens, UniProt Q15116)
Construct: expressed in transfected cells; host or cells: Jurkat cell line over-expressing human PD-1
Sequence (Q15116 25-288): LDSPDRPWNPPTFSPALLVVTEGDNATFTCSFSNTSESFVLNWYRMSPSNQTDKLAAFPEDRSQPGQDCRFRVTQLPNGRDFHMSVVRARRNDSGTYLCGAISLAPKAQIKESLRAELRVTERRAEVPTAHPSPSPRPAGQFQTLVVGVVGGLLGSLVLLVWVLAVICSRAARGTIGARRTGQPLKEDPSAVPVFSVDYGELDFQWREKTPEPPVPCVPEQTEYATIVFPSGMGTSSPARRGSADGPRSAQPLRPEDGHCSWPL
METHOD_NOTES: Jurkat-PD-1 Cell Binding High-Content Screening Assay (CBA); Jurkat hPD1-PDL1 assay
CONDITIONS: Jurkat cell line over-expressing human PD-1; PE-labeled PD-L1-Ig 20 nM final; compound incubated 2 hours at 37° C.; read-out: Jurkat HPD1-PDL1 IC50
Positions of bridges follow the written chain, without caps; N, C: chain ends. Non-standard residues stand in square brackets, D forms with d. Residues, ends and D or L forms follow the SMILES beside them. Bip = N[C@@H](Cc1ccc(-c2ccccc2)cc1)C(=O)O; Phe(3-Br) = N[C@@H](Cc1cccc(Br)c1)C(=O)O; NMeA = CN[C@@H](C)C(=O)O
ASSAY_READOUT: IC50 (µM)
Answer with a number only, understood to be in µM.

Field request: IC50 | item: CC(C)C[C@@H]1NC(=O)[C@H](Cc2c[nH]c3ccccc23)NC(=O)[C@H](CC(=O)O)NC(=O)[C@H](Cc2ccc(O)cc2)NC(=O)[C@H](Cc2ccccc2)NC(=O)CSC[C@@H](C(=O)N[C@@H](C)C(N)=O)NC(=O)[C@H](CO)NC(=O)[C@H](C(C)C)NC(=O)[C@H](CC(C)C)NC(=O)[C@H](CC(N)=O)NC(=O)[C@H]2CCCN2C(=O)[C@H](C)N(C)C(=O)[C@H](C(C)C)NC(=O)[C@H](Cc2ccc(-c3ccccc3)cc2)NC1=O [Example 1034] ({CH2CO}-FYDWL[Bip]V[NMeA][dP]NLVSCA-NH2; thioether N-14)
0.06

Field request: IC50 | item: CC(C)C[C@@H]1NC(=O)[C@H](Cc2c[nH]c3ccccc23)NC(=O)[C@H](CC(=O)O)NC(=O)[C@H](Cc2cccc(Br)c2)NC(=O)[C@H](Cc2ccccc2)NC(=O)CSC[C@@H](C(=O)N[C@@H](C)C(N)=O)NC(=O)[C@H](CO)NC(=O)[C@H](C(C)C)NC(=O)[C@H](CC(C)C)NC(=O)[C@H](CC(N)=O)NC(=O)[C@H]2CCCN2C(=O)[C@H](C)N(C)C(=O)[C@H](C(C)C)NC(=O)[C@H](Cc2ccc(-c3ccccc3)cc2)NC1=O [Example 1065] ({CH2CO}-F[Phe(3-Br)]DWL[Bip]V[NMeA][dP]NLVSCA-NH2; thioether N-14)
0.12

====

TARGET_DESC: human PD-1 (Jurkat-PD-1 cells) / PE-labeled human PD-L1-Ig (Homo sapiens, UniProt Q15116)
Construct: expressed in transfected cells; host or cells: Jurkat cell line over-expressing human PD-1
METHOD_NOTES: Jurkat-PD-1 Cell Binding High-Content Screening Assay (CBA); Jurkat hPD1-PDL1 assay
CONDITIONS: Jurkat cell line over-expressing human PD-1; PE-labeled PD-L1-Ig 20 nM final; compound incubated 2 hours at 37° C.; read-out: Jurkat HPD1-PDL1 IC50
Positions of bridges follow the written chain, without caps; N, C: chain ends. Non-standard residues stand in square brackets, D forms with d. Residues, ends and D or L forms follow the SMILES beside them. Bip = N[C@@H](Cc1ccc(-c2ccccc2)cc1)C(=O)O; Ala(cPr) = N[C@@H](CC1CC1)C(=O)O; NMeF = CN[C@@H](Cc1ccccc1)C(=O)O; NMeA = CN[C@@H](C)C(=O)O; Orn = NCCC[C@H](N)C(=O)O; Dab = NCC[C@H](N)C(=O)O; Dap = NC[C@H](N)C(=O)O; Sar = CNCC(=O)O
Listing of recorded IC50 by entry.
Answer with a number only, understood to be in nM.

Please review the following examples before continuing.
{"COMPOUND": "CC(C)C[C@@H]1NC(=O)[C@H](CCCNC(=N)N)NC(=O)[C@H](Cc2ccccc2)N(C)C(=O)[C@H](C)N(C)C(=O)[C@H](CCCNC(=N)N)NC(=O)[C@H](Cc2ccc(-c3ccccc3)cc2)NC(=O)[C@H](C(C)C)NC(=O)[C@H](Cc2c[nH]c3ccccc23)NC(=O)[C@H](CC(=O)O)NC(=O)[C@H](Cc2ccc(O)cc2)NC(=O)[C@H](CN)NC(=O)CSC[C@@H](C(=O)NCC(N)=O)NC(=O)[C@H](CO)NC(=O)[C@H](C(C)C)NC1=O [Example 1264] ({CH2CO}-[Dap]YDWV[Bip]R[NMeA][NMeF]RLVSCG-NH2; thioether N-14)", "IC50 (nM)": 160}
{"COMPOUND": "CC(C)C[C@@H]1NC(=O)[C@H](Cc2c[nH]c3ccccc23)NC(=O)[C@H](CC(=O)O)NC(=O)[C@H](Cc2ccc(O)cc2)NC(=O)[C@H](CC(N)=O)NC(=O)CSC[C@@H](C(=O)N[C@@H](C)C(N)=O)NC(=O)[C@H]([C@@H](C)O)NC(=O)[C@H](C(C)C)NC(=O)[C@H](CC(C)C)NC(=O)[C@H](CC(N)=O)NC(=O)[C@H]2CCCN2C(=O)[C@H](CCCN)NC(=O)[C@H](C(C)C)NC(=O)[C@H](Cc2ccc(-c3ccccc3)cc2)NC1=O [Example 1426] ({CH2CO}-NYDWL[Bip]V[Orn][dP]NLVTCA-NH2; thioether N-14)", "IC50 (nM)": 220}
{"COMPOUND": "CC(C)C[C@@H]1NC(=O)[C@H](Cc2c[nH]c3ccccc23)NC(=O)[C@H](CC(=O)O)NC(=O)[C@H](Cc2ccc(O)cc2)NC(=O)[C@H](Cc2ccccc2)NC(=O)CSC[C@@H](C(=O)N[C@@H](C)C(N)=O)NC(=O)[C@H](CO)NC(=O)[C@H](C(C)C)NC(=O)[C@H](CC2CC2)NC(=O)[C@H](CC(N)=O)NC(=O)CN(C)C(=O)[C@H](C)N(C)C(=O)[C@H](C(C)C)NC(=O)[C@H](Cc2ccc(-c3ccccc3)cc2)NC1=O [Example 1144] ({CH2CO}-FYDWL[Bip]V[NMeA][Sar]N[Ala(cPr)]VSCA-NH2; thioether N-14)", "IC50 (nM)": 630}
{"COMPOUND": "CC(C)C[C@@H]1NC(=O)[C@H](Cc2c[nH]c3ccccc23)NC(=O)[C@H](CC(=O)O)NC(=O)[C@H](Cc2ccc(O)cc2)NC(=O)[C@H](Cc2ccccc2)NC(=O)CSC[C@@H](C(=O)NCC(N)=O)NC(=O)[C@H](C)NC(=O)[C@H](C(C)C)NC(=O)[C@H](CC(C)C)NC(=O)[C@H](CC(N)=O)NC(=O)CN(C)C(=O)[C@H](C)N(C)C(=O)[C@H](C(C)C)NC(=O)[C@H](Cc2ccc(-c3ccccc3)cc2)NC1=O [Example 1110] ({CH2CO}-FYDWL[Bip]V[NMeA][Sar]NLVACG-NH2; thioether N-14)", "IC50 (nM)": 350}

Field request: IC50 | item: CC(C)C[C@@H]1NC(=O)[C@H](Cc2c[nH]c3ccccc23)NC(=O)[C@H](CC(=O)O)NC(=O)[C@H](Cc2ccc(O)cc2)NC(=O)[C@H](Cc2ccccc2)NC(=O)CSC[C@@H](C(=O)N[C@@H](C)C(N)=O)NC(=O)[C@H]([C@@H](C)O)NC(=O)[C@H](C(C)C)NC(=O)[C@H](CC(C)C)NC(=O)[C@H](CC(N)=O)NC(=O)[C@H]2CCCN2C(=O)[C@H](CCN)NC(=O)[C@H](C(C)C)NC(=O)[C@H](Cc2ccc(-c3ccccc3)cc2)NC1=O [Example 1412] ({CH2CO}-FYDWL[Bip]V[Dab][dP]NLVTCA-NH2; thioether N-14)
480
